Target: human CB2 receptor (Homo sapiens)
Construct: host or cells: CHO-K1 (Chinese hamster ovary) cells, stably transfected; membranes prepared in house
Assay: CB2 radioligand competitive binding assay ([3H]CP 55,940 displacement)
Settings: fold difference in binding between CB1 and CB2, shown in column of receptor with higher affinity; 1.00 in both = about the same affinity
# Selectivity CB2 per entry
Answer in fold, number only, no unit symbol.

Look over these answered cases.
MOLECULE: CCCCCc1cc(O)c(C2C=C(C)CCC2)c(O)c1CN(C)C(=O)OC (centres unmarked) [Compound 59c]
READOUT UNIT: fold
TEST RESULT: 9.26
//
MOLECULE: CCCc1c(CN(C)C(=O)OC)c(O)c(C2C=C(C)CCC2)c(O)c1CN(C)C(=O)OC (centres unmarked)
READOUT UNIT: fold
TEST RESULT: 3.25
//
MOLECULE: CCCCCc1cc(O)c(C2C=C(C)CCC2)c(O)c1C(=O)N1CCOCC1 (centres unmarked) [Compound 39c]
READOUT UNIT: fold
TEST RESULT: 3.20
//
MOLECULE: CCCCCc1cc(O)c(C2C=C(C)CCC2)c(O)c1C(=O)NC (centres unmarked)
READOUT UNIT: fold
TEST RESULT: 3.20
//
MOLECULE: C=C(C)[C@@H]1CCC(C)=C[C@H]1c1c(O)cc(CCCCC)c(C(=O)N2CCOCC2)c1O [Compound 39d]
READOUT UNIT: fold
TEST RESULT: 3.49

Item `C=C(C)[C@@H]1CCC(C)=C[C@H]1c1c(O)cc(CCCCC)c(C(=O)NC)c1O` has what recorded Selectivity CB2?
1.26

Item CCCCCc1cc(O)c(C2C=C(C)CCC2)c(O)c1C(=O)N1CCN(S(C)(=O)=O)CC1 (centres unmarked) [Compound 37c] has what recorded Selectivity CB2?
66.67

Item CCCCCc1cc(O)c(C2C=C(C)CCC2)c(O)c1C(=O)NCc1cccnc1 (centres unmarked) [Compound 15c] has what recorded Selectivity CB2?
23.17

----------
Biological target: human CB2 receptor (Homo sapiens, UniProt P34972)
Construct: host or cells: CHO-K1 (Chinese hamster ovary) cells, stably transfected; membranes prepared in house
Sequence (P34972 whole entry): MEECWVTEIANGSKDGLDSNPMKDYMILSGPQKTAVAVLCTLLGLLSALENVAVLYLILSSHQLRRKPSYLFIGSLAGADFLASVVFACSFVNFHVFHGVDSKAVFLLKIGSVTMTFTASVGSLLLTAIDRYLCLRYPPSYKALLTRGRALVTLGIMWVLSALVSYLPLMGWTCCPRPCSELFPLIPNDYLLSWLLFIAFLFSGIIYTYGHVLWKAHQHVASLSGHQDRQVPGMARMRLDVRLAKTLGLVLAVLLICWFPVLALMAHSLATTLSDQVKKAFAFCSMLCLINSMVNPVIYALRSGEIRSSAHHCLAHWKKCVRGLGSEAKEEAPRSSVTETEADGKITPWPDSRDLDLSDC
Assay: CB2 radioligand competitive binding assay ([3H]CP 55,940 displacement)
Conditions: fold difference in binding between CB1 and CB2, shown in column of receptor with higher affinity; 1.00 in both = about the same affinity
OBSERVABLE: Selectivity CB2

Look over these answered cases.
COMPOUND: CCCCCc1cc(O)c(C2C=C(C)CCC2)c(O)c1C(N)=O (centres unmarked) [Compound 58c]
Selectivity CB2: 11.83 fold

COMPOUND: CCCCCc1cc(O)c(C2C=C(C)CCC2)c(O)c1C(=O)NCc1ccccc1 (centres unmarked) [Compound 14c]
Selectivity CB2: 1300.00 fold

COMPOUND: CCCCCc1cc(O)c(C2C=C(C)CCC2)c(O)c1C(=O)N1CCCC1 (centres unmarked) [Compound 41c]
Selectivity CB2: 13.31 fold

COMPOUND: CCCCCc1cc(O)c(C2C=C(C)CCC2)c(O)c1C(=O)N1CCn2cnnc2C1 (centres unmarked) [Compound 34c]
Selectivity CB2: 1.00 fold

Item C=C(C)C1CCC(C)=CC1c1c(O)cc(CCCCC)c(C(=O)NCc2ccccc2)c1O (centres unmarked) [Compound 14d] has what recorded Selectivity CB2?
13.50 fold

Item C=C(C)[C@@H]1CCC(C)=C[C@H]1c1c(O)cc(CCC)c(C(=O)NC)c1O [Compound 96d] has what recorded Selectivity CB2?
2.59 fold

Item CCCCCc1cc(O)c(C2C=C(C)CCC2)c(O)c1C(=O)NCc1ccccc1Br (centres unmarked) [Compound 57c] has what recorded Selectivity CB2?
21.67 fold

Item CCCCCc1cc(O)c(-c2cccc(C)c2)c(O)c1CN(C)C(=O)OC [Compound 59a] has what recorded Selectivity CB2?
10.91 fold

----------
Target: human CB2 receptor (Homo sapiens, UniProt P34972)
Construct: host or cells: CHO-K1 (Chinese hamster ovary) cells, stably transfected; membranes prepared in house
Experiment: CB2 radioligand competitive binding assay ([3H]CP 55,940 displacement)
Settings: fold difference in binding between CB1 and CB2, shown in column of receptor with higher affinity; 1.00 in both = about the same affinity
OBSERVABLE: Selectivity CB2 (fold)
Answer in fold, number only, no unit symbol.

Look over these answered cases.
COMPOUND: CCCCCc1cc(O)c(C2C=C(C)CCC2)c(O)c1C(=O)NC1CCCC1 (centres unmarked) [Compound 7c]
READOUT UNIT: fold
TEST RESULT: 188.10
//
COMPOUND: C=C(C)[C@@H]1CCC(C)=C[C@H]1c1c(O)cc(CCCCC)c(C(=O)NCC)c1O [Compound 3d]
READOUT UNIT: fold
TEST RESULT: 1.80
//
COMPOUND: CCCCCc1cc(O)c(-c2cccc(C)c2)c(O)c1C(=O)N1CCOCC1 [Compound 39a]
READOUT UNIT: fold
TEST RESULT: 3.70
//
COMPOUND: C=C(C)[C@@H]1CCC(C)=C[C@H]1c1c(O)cc(CCCCC)c(C(=O)NC2CC2)c1O [Compound 6d]
READOUT UNIT: fold
TEST RESULT: 9.09

Item C=CCNC(=O)c1c(CCCCC)cc(O)c(C2C=C(C)CCC2)c1O (centres unmarked) [Compound 25c] has what recorded Selectivity CB2?
16.53

Item CCCCCc1cc(O)c(-c2cccc(C)c2)c(O)c1C(=O)NCc1cccnc1 [Compound 15a] has what recorded Selectivity CB2?
17.62

Item C=C(C)[C@@H]1CCC(C)=C[C@H]1c1c(O)cc(CCCCC)c(C(=O)Nc2ccc(OC)cc2)c1O [Compound 11d] has what recorded Selectivity CB2?
3.11

Item CCCCCc1cc(O)c(C2C=C(C)CCC2)c(O)c1C(=O)NC1CC1 (centres unmarked) [Compound 6c] has what recorded Selectivity CB2?
40.14

----------
Target: human CB2 receptor (Homo sapiens, UniProt P34972)
pIC50: −log10 of the molar value.
# pIC50 per entry

Look over these answered cases.
COMPOUND: CCCCCc1cc(O)c(C2C=C(C)CCC2)c(O)c1C(=O)N1CCn2cnnc2C1 (centres unmarked) [Compound 34c]
pIC50: < 5.30
--
COMPOUND: C=C(C)[C@@H]1CCC(C)=C[C@H]1c1c(O)cc(CCCCC)c(C(=O)NCc2cccnc2)c1O [Compound 15d]
pIC50: 6.00 to 7.00
--
COMPOUND: C=C(C)[C@@H]1CCC(C)=C[C@H]1c1c(O)cc(CCCCC)c(C(=O)NC)c1O
pIC50: 6.00 to 7.00
--
COMPOUND: C=C(C)[C@@H]1CCC(C)=C[C@H]1c1c(O)cc(CCC)c(C(=O)NC)c1O [Compound 96d]
pIC50: < 5.30

Item CCCCCc1cc(O)c(C2C=C(C)CCC2)c(O)c1C(=O)NC1CCCC1 (centres unmarked) has what recorded pIC50?
> 7.00

Item C=C(C)C1CCC(C)=CC1c1c(O)cc(CCCCC)c(C(=O)NCc2ccccc2)c1O (centres unmarked) [Compound 14d] has what recorded pIC50?
5.30 to 6.00

Item CCCCCc1cc(O)c(C2C=C(C)CCC2)c(O)c1C(N)=O (centres unmarked) [Compound 58c] has what recorded pIC50?
5.30 to 6.00

Item `C=C(C)[C@@H]1CCC(C)=C[C@H]1c1c(O)cc(CCCCC)c(C(=O)NCC)c1O` has what recorded pIC50?
5.30 to 6.00

----------
Measurement record for human CB1 receptor (Homo sapiens); quantity recorded: pIC50.
pIC50: −log10 of the molar value.

Look over these answered cases.
COMPOUND: C=CCNC(=O)c1c(CCCCC)cc(O)c(C2C=C(C)CCC2)c1O (stereo not drawn) [Compound 25c]
TEST RESULT: 5.30 to 6.00
//
COMPOUND: CCCCCc1cc(O)c(C2C=C(C)CCC2)c(O)c1C(=O)NC1CC1 (stereo not drawn) [Compound 6c]
TEST RESULT: 5.30 to 6.00

In the following, a different compound is considered.
Item CCCCCc1cc(O)c(C2C=C(C)CCC2)c(O)c1C(=O)NCc1ccccc1 (stereo not drawn) [Compound 14c] has what recorded pIC50?
5.30 to 6.00

The values you see were collected from patent US12325709B2.
